# tested_system: T1, human importin-α5 without its importin-β binding (IBB) domain (residues 66 to 538) (human, UniProt P52294 66-538)
# T1 construct: also called ΔIBB importin-α5; Imp-α5
# T1 sequence (P52294 66-538): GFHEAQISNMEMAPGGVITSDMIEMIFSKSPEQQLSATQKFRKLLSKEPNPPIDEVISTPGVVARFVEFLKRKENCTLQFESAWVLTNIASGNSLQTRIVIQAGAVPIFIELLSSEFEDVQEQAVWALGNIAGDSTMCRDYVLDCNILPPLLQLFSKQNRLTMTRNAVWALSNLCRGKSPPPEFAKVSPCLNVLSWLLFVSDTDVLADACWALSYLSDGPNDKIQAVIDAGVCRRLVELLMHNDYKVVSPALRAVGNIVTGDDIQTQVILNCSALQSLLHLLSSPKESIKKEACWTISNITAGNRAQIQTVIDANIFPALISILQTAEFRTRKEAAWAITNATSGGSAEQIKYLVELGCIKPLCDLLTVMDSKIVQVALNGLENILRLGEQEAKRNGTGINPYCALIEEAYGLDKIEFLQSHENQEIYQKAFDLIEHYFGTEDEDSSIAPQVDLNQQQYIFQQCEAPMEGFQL
# protocol_details: SPR
# condition_description: both partners purified
outcome_measure: pKd
// pKd: -log10(molar conc.)

Fill blank: measured pKd of the binder B/NP_TAIL-YFP, nucleoprotein tail of B/Memphis/13/03 (residues 1 to 71) fused to yellow fluorescent (domain or fragment) MSNMDIDGINTGTIDKTPEEITSGTSGTTRPIIRPATLAPPSNKRTRNPSPERATTSSEADVGRKTQKKQT is ____.
6.11
